Below, each of the molecules is paired with its reported composite z-score value.
assay: COS7 lysate on small-molecule microarray, probe aHis, 635 nm (AID 1123); settings: COS7 cell lysate, fluorescence, higher = more signal;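 note: z-score combines 667nm fluorescence intensity with signal-to-noise per printed compound spot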
Just the number, please.

smiles.structure: C=CCNC(=O)[C@H]1[C@@H]2C(=O)O[C@@H](c3ccccc3)[C@@H](c3ccccc3)N2[C@@H](c2ccc(O)cc2)[C@]12C(=O)N(C(=O)OCCOC)c1ccccc12
quantitative.readout: 2.18
//
smiles.structure: C=C(CCCC)/C(=C/C[C@@H](OC(=O)c1ccncc1)c1ccccc1OCCO)c1cnc2ccccc2c1
quantitative.readout: 0.457

Here's the next entry for you.
Task: I would be grateful if you could share the reported composite z-score for CCOC(=O)C[C@H]1[C@H](OC(=O)c2cc3ccccc3oc2=O)[C@@H](NC(=O)Cc2ccc(OC)cc2)c2cc(OCCCO)ccc2N1C(=O)c1ccc2ccccc2n1 .
Result: 0.303

###

test system: XIP peptide (Xip251-270); assay: small-molecule binders of XIP peptide, primary screen, biochemical, small-molecule microarray, fluorescence 635/667 nm, 0.5 µg/mL protein (AID 1183); details: small-molecule microarray binding, fluorescence 635 nm; higher = more signal
Lab note: compare composite z-score against 0.7. Equal or greater, write 1.0. Smaller, write 0.0.

compound: CN(C)C(=O)[C@]1(CCS(=O)(=O)c2ccccc2)N=C(c2ccc(OCCCO)cc2)O[C@@H]1c1ccccc1N=[N+]=[N-]
class.name: 1.0

compound: C=CCOC(=O)[C@H]1[C@@H]2C(=O)O[C@@H](c3ccccc3)[C@@H](c3ccccc3)N2[C@@H](c2ccc(OCCOC(=O)[C@@H]3C[C@@H]4C(=O)N5CCC[C@H]5C(=O)N4[C@@H]3c3ccc(O)cc3)cc2)[C@]12C(=O)Nc1ccc(I)cc12
class.name: 1.0

compound: COc1ccc(C(O)C2C=CC3C(=O)N(c4ccccc4)C(=O)C3N2Nc2ccc([N+](=O)[O-])cc2)cc1 (stereo not given)
class.name: 1.0

With those in mind, consider the next compound.
Task: Given COCCOC(=O)N1C(=O)[C@@]2(c3cc(C#CCNC(N)=O)ccc31)[C@H](C(=O)N1CCc3cc(OC)c(OC)cc3C1)[C@H]1C(=O)O[C@H](c3ccccc3)[C@H](c3ccccc3)N1[C@@H]2c1ccccc1OCCO , state whether its composite z-score is at least 0.7.
Result: 0.0

###

test: RPMI8226 myeloma cell viability, profiling panel, resazurin fluorescence, basal, 24 h, PK04 Diversity Set (AID 1180); details: higher = more signal;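 note: RPMI8826 multiple myeloma cell line at 5000 cells per well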
# z-score annotations

Answered examples (3):
molecule: COC(=O)[C@@]1(Cc2ccc(OC)cc2)[C@H]2c3cc(C(=O)N4CCCC4)n(Cc4cccc5ccccc45)c3C[C@H]2CN1C(=O)c1ccccc1
z-score: 0.0686

molecule: OCC1CC(c2ccccc2)=NO1 (configuration not stated)
z-score: 0.886

molecule: COC(=O)[C@@]1(Cc2ccccc2)[C@@H]2C(=CC(=O)[C@H]2CC(=O)C(=O)N(C)C)CN1C(=O)c1ccccc1
z-score: -5.21

Task: Which value of z-score has been reported for COCCCNC(=O)[C@@]1(Cc2ccccc2CN=[N+]=[N-])N=C(c2ccc(OCCCO)cc2)O[C@H]1c1ccccc1 in the records?
Result: -1.75

###

# reported composite z-score; entries follow
molecular target: Neurogenic locus notch homolog protein 3 (Homo sapiens) (UniProt Q9UM47); experiment: NOTCH3 binders on small-molecule microarray, primary screen, biochemical, 635/667 nm fluorescence (AID 1096); settings: NOTCH3 binding, 635 nm fluorescence, higher = more signal
Sequence (Q9UM47 whole entry, looked up): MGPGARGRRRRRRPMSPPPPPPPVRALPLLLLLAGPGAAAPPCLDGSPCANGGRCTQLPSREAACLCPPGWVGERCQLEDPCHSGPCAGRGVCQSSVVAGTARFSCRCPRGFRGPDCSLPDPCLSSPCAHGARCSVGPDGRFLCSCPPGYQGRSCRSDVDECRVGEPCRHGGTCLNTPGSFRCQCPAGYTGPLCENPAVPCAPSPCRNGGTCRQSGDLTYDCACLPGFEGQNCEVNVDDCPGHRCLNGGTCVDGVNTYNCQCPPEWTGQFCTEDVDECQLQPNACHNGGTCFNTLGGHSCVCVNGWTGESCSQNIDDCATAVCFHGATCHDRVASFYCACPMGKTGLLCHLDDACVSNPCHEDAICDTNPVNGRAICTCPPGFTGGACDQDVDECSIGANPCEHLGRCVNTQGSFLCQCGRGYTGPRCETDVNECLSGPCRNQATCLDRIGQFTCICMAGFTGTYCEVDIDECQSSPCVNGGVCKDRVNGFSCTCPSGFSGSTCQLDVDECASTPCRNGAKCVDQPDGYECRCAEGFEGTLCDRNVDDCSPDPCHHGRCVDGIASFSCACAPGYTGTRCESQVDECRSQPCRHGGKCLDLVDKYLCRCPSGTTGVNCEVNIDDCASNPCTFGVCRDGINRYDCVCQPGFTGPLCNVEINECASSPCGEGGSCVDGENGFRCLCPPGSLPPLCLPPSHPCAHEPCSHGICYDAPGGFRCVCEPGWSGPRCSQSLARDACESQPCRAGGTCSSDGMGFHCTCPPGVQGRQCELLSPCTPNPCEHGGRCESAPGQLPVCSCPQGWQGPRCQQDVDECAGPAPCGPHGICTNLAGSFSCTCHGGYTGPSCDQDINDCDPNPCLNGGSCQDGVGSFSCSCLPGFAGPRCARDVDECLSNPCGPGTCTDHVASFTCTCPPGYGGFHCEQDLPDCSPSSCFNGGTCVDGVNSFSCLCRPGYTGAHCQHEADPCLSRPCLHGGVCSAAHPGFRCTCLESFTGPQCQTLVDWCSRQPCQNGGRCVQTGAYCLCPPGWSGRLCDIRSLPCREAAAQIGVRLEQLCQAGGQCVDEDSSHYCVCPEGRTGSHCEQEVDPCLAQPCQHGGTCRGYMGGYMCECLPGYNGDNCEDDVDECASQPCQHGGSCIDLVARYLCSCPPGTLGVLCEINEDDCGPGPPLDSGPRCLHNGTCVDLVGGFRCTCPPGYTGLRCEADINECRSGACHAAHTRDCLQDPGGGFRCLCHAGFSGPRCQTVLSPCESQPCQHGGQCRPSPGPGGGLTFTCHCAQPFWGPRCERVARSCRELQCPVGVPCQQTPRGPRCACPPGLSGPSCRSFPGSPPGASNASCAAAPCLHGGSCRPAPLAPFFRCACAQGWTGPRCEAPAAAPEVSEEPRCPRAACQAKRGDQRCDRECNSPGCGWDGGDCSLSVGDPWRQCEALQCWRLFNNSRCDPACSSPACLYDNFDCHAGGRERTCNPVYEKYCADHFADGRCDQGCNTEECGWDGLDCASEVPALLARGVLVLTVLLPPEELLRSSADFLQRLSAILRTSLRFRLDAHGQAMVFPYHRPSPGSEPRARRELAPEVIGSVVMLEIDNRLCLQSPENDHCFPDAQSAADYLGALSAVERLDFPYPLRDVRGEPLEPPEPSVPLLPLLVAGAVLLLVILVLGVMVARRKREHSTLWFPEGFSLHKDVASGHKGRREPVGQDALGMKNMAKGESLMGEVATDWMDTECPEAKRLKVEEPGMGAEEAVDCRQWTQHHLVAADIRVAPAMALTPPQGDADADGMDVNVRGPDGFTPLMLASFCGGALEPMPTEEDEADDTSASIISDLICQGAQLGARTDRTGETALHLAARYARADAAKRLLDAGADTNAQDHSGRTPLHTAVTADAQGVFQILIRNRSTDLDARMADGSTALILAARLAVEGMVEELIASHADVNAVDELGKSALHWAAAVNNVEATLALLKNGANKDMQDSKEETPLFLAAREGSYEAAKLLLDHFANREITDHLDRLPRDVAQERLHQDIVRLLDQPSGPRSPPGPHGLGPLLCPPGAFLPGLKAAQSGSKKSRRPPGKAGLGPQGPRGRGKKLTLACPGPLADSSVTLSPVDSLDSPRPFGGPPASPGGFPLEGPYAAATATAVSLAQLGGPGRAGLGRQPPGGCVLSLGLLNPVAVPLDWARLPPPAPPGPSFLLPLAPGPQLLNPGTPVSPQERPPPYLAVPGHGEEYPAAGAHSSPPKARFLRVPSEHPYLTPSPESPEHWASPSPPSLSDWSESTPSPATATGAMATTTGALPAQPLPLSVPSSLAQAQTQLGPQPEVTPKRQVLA

Examples with their reported composite z-score follow.
smiles.structure: CCCC[C@@H]1C[C@H]1[C@@H](NC(=O)Cc1ccccc1)c1ccc(-c2ccccc2)cc1
composite z-score: 0.0419
--
smiles.structure: COCCOC(=O)N1C(=O)[C@@]2(c3cc(C#Cc4ccc(OC)cc4)ccc31)[C@H](C(=O)Nc1nc3ccccc3s1)[C@H]1C(=O)O[C@H](c3ccccc3)[C@H](c3ccccc3)N1[C@@H]2c1ccc(O)cc1
composite z-score: 1.08
--
smiles.structure: COCCOC(=O)N1C(=O)[C@@]2(c3cc(C#CCC(C(=O)OC)C(=O)OC)ccc31)[C@H](C(=O)N1CCc3cc(OC)c(OC)cc3C1)[C@H]1C(=O)O[C@H](c3ccccc3)[C@H](c3ccccc3)N1[C@@H]2c1ccc(OCCO)cc1
composite z-score: 1.08
--
smiles.structure: COc1ccc([Si](C)(C)[C@H]2[C@H](CCO)O[C@@]3(C(=O)N(Cc4cccc(N5C(=O)COc6ccccc65)c4)c4ccccc43)[C@@H]2C)cc1
composite z-score: 0.14

Task: Which value of composite z-score has been reported for COCCOC(=O)N1C(=O)[C@@]2(c3cc(C#CC4(O)CCCCCC4)ccc31)[C@H](c1ccc(O)cc1)N1[C@H](c3ccccc3)[C@H](c3ccccc3)OC(=O)[C@H]1[C@@H]2C(=O)NC[C@H](O)c1ccccc1 in the records?
Result: 1.06
